- target-entity: human EBP (Homo sapiens (Human))
- Sequence (Q15125 whole entry): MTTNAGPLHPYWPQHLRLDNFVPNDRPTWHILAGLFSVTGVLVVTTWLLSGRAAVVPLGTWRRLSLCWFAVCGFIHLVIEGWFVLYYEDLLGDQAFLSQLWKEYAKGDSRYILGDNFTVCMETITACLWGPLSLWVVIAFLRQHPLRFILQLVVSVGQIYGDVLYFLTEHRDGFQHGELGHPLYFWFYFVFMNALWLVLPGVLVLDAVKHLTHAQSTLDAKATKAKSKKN
- test-protocol: Competition binding assay (SPA, [3H]-Ifenprodil) to determine compound affinity to EBP
- assay-conditions: [3H]-Ifenprodil 10 nM, HEK293 membrane overexpressing human EBP, Ki=IC50/(1+[L]/Kd); read-out: hEBP SPA Ki
- Protocol: Membrane preparation: To examine compound binding affinity to EBP, human EBP was overexpressed in human embryonic kidney 293 cells. […] This binding solution was centrifuged at 400 g for 5 minutes to collect the bead/membrane mixture. After re-suspending the pellet in binding buffer at the same calculated volume with 0.01% BSA (Sigma A1933), the bead/membrane mixture was added in 384-well low-binding surface plate (PerkinElmer Cat #6057480) at 25 μl/well. […]
value-type: Ki (µM)

Use these answered entries as a reference point.
> print(dat)
                                   molecule  recorded.number
1  O=S1(=O)CC2(CCN([C@@H]3CC[C@@H](c4ccc(C(F)(F)F)cc4)C3)C2)C1              0.1
2  O=S1(=O)CC2(CCN(C3CCN(c4ncc(C(F)(F)F)cc4F)CC3)C2)C1            0.024
3  Cc1cc(C(F)(F)F)ncc1N1CCC(N2CCC3(C2)CS(=O)(=O)C3)CC1            0.033
4  CC(C)n1cc(C(F)(F)F)nc1[C@H]1CC[C@@H](N2CCC3(C2)CS(=O)(=O)C3)C1 (single isomer, unassigned) [20C*]             0.27
5  O=S1(=O)CC2(CCN([C@H]3CCN(c4ccc(C(F)(F)F)nc4)C3)C2)C1 (single isomer, unassigned)            0.034

A: Cn1nc(C(F)(F)F)cc1[C@H]1CC[C@H](N2CC[C@@]3(CCS(=O)(=O)C3)C2)CC1 (single isomer, unassigned) [27A*]
B: Cc1cc(C(F)(F)F)cnc1[C@H]1CC[C@H](N2CCC3(C2)CS(=O)(=O)C3)CC1 [Compound 47B]
## Input Identify the item whose Ki is the smaller number: A or B Please identify the chosen entry by its label.
## Output B
(B: 0.016 µM, A: 0.039 µM)

P: CC(C)n1nc(C(F)(F)F)cc1[C@H]1CC[C@H](N2CCC3(C2)CS(=O)(=O)C3)CC1
Q: CCn1nc(-c2ccc(C(F)(F)F)nc2)nc1[C@H]1CC[C@@H](N2CCC3(C2)CS(=O)(=O)C3)CC1 [36B*]
R: O=S1(=O)CC2(CCN([C@@H]3CO[C@H](c4ccc(C(F)(F)F)cc4)C3)C2)C1 (stereo in doubt) [19C*]
## Input Order the records, beginning with the lowest Ki and ending with the highest. Order the labels as requested and give them as your answer.
## Output P, R, Q

A: Cn1nc(C(F)(F)F)cc1[C@H]1CC[C@H](N2CCC[C@]3(CCS(=O)(=O)C3)C2)CC1 (single isomer, unassigned) [26B*]
B: O=S1(=O)CC2(CCN([C@H]3CC[C@H](c4cc(C(F)(F)F)nn4C4CC4)CC3)CC2)C1 [Compound 40B]
## Input Consider A and B . Which of these has its Ki at a higher number? Please identify the chosen entry by its label.
## Output B
(B: 0.047 µM, A: 0.021 µM)

Provenance of the data: patent US20240398781A1
